Each recorded value in this set is attributed to patent EP4656642A1.

- ASSAY SYSTEM: ERα (Homo sapiens)
- EXPERIMENT NOTES: Degradation of ERα in MCF-7 cells (immunoblotting, 4 h)
- Type: cell-based
- CONDITION SET: 1nM compound
- Procedure: MCF-7 cells were inoculated into 6-well plates at a density of 3×10^5 cells/well and cultured at 37°C, 5% CO2 for 24h. […] Protein immunoblotting: The total protein concentration in the collected cell lysate supernatant was determined by BCA Protein Concentration Assay Kit (Enhanced) (P0009, Beyotime). […] Protein profiles were analyzed by Image Studio Lite analysis software for grayscale values. […]
QUANTITY KIND: Degradation rate (%) of ERα in MCF-7 cells
Answers are plain numbers, in %.

1) O=C1CCC(N2Cc3c(ccc4c3OCC43CCN(CC(=O)N(CC4CC4)C4CC5(CCN(c6ccc([C@@H]7c8ccc(O)cc8CC[C@@H]7c7ccccc7)cc6)CC5)C4)CC3)C2=O)C(=O)N1 (some centres unmarked) [H54] = 11
2) O=C1CCC(N2Cc3c(ccc4c3OCC43CCN(C(=O)CN4CC5(C4)CN(c4ccc([C@@H]6c7ccc(O)cc7CC[C@@H]6c6ccccc6)cc4)C5)CC3)C2=O)C(=O)N1 (some centres unmarked) [B20] = 42
3) C[C@@H]1Cc2c(ccc3[nH]ncc23)C(c2ccc(N3CCC(C(=O)N4CCC(N5CCC6(CC5)COc5c6ccc6c5CN(C5CCC(=O)NC5=O)C6=O)CC4)CC3)cn2)N1CC(F)(F)F (some centres unmarked) [B42] = 17
4) O=C1CCC(N2C(=O)c3cc4c(cc3C2=O)OCC2(CCN(CC3CCC5(CC3)CCN(c3ccc([C@@H]6c7ccc(O)cc7CC[C@@H]6c6ccccc6)cc3)CC5)CC2)C4)C(=O)N1 (some centres unmarked) [A42] = -49
5) O=C1CCC(N2Cc3c(ccc4c3OCC43CCN(C4CC5(C4)CN(c4ccc([C@@H]6c7ccc(O)cc7CC[C@@H]6c6ccccc6)cc4)C5)CC3)C2=O)C(=O)N1 (some centres unmarked) [L18] = -6

Take each entry in turn and give its Degradation rate (%) of ERα in MCF-7 cells.
1. O=C1CCC(N2Cc3c(ccc4c3OC3(CC4)CCN(C4CCC5(CC4)CCN(c4ccc([C@@H]6c7ccc(O)cc7CC[C@@H]6c6ccccc6)cc4)CC5)CC3)C2=O)C(=O)N1 (some centres unmarked) [L20]
2. C[C@@H]1Cc2cc(O)ccc2C(c2c(F)cc(N3CCC4(CCN(CC(=O)N5CCC6(CC5)COc5c6ccc6c5CN(C5CCC(=O)NC5=O)C6=O)CC4)CC3)cc2F)N1CC(F)F (some centres unmarked) [F4]

1. -12
2. 64

Item O=C1CCC(N2Cc3c(ccc4c3OCC43CCN(C(=O)c4ccc(CN5CCN(c6ccc([C@@H]7c8ccc(O)cc8CC[C@@H]7c7ccccc7)cc6)CC5)cc4)CC3)C2=O)C(=O)N1 (some centres unmarked) [B39] has what recorded Degradation rate (%) of ERα in MCF-7 cells?
41

----------
- ASSAY SYSTEM: ERα (Homo sapiens, UniProt P03372)
- Sequence (P03372 whole entry): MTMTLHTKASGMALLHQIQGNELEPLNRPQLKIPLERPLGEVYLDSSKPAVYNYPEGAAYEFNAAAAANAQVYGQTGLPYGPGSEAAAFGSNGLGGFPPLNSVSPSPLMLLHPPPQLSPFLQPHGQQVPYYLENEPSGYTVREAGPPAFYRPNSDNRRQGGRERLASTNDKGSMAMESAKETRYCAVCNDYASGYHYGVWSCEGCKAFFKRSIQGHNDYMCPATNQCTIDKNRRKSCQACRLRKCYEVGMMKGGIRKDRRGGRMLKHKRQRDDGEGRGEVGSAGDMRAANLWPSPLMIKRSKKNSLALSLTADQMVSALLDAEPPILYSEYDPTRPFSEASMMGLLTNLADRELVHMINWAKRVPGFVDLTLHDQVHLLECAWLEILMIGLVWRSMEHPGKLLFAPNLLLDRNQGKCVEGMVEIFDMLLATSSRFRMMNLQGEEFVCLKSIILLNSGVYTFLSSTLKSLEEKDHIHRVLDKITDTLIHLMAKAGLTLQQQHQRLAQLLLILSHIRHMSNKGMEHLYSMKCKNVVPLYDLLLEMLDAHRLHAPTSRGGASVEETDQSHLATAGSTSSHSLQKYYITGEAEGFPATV
- EXPERIMENT NOTES: Degradation of ERα in MCF-7 cells (immunoblotting, 4 h)
- Assay type: cell-based
- CONDITION SET: 1nM compound
Strictly below 20% in Degradation rate (%) of ERα in MCF-7 cells: Met. Otherwise: Not met.

1) O=C1CCC(N2Cc3c(ccc4c3OCC43CCN(CC4(F)CCN(CC5CCN(c6ccc([C@@H]7c8ccc(O)cc8CC[C@@H]7c7ccccc7)cc6)CC5)CC4)CC3)C2=O)C(=O)N1 (stereo partly drawn) = Not met
2) O=C1CCC(N2Cc3ccc4c(c3C2=O)OCC42CCN(C3CCC4(CC3)CN(c3ccc([C@@H]5c6ccc(O)cc6CC[C@@H]5c5ccccc5)cc3)C4)CC2)C(=O)N1 (stereo partly drawn) = Met

Switching to the query record.
Hi there! Is Degradation rate (%) of ERα in MCF-7 cells for O=C1CCC(N2Cc3c(ccc4c3OCC43CCN(CCN4CCC5(CC4)CCN(c4ccc([C@@H]6c7ccc(O)cc7CC[C@@H]6c6ccccc6)cc4)CC5)CC3)C2=O)C(=O)N1 (stereo partly drawn) below 20%, do you know?
Not met
